B1: FBXO3 (parent)
chain: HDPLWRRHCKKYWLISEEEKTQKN

variants of: B1; assay: protein stability index of a GFP-peptide fusion (GPS, HEK-293T) (PSI 1-6); higher = more stable; details: c terminus: a fixed tail appended;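 note: lentivirally expressed fusions sorted by FACS into six bins by GFP to DsRed ratio, PSI derived from sequencing read proportions per bin multiplied by bin number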
measured endpoint: protein stability index

- K20C: 2.9
- Y12C: 3.4
- R7W: 2.68
- K23E: 3.8
- K10H: 3.27
- Q22R: 2.95
- E19H: 2.91
- E19P: 2.98
- P3Y: 2.75
- P3N: 3.49
- D2N: 2.78
- L4W: 3.63
- Q22E: 3.42
- P3D: 3.33
- E19M: 2.66
- E17Q: 2.98
- E18K: 3.04
- S16I: 2.4
- K10T: 2.71
- E19I: 2.38
- K20F: 2.6
- L4N: 3.52
